SUBJECT OF TEST: ABCB1 (multidrug resistance protein 1, P-glycoprotein) (Homo sapiens)
Construct: recombinant human ABCB1 in MDR1-Sf9 membranes
ASSAY EXPLANATION: vanadate-sensitive ATPase assay (Pi release) in MDR1-Sf9 membranes; inhibition of verapamil-stimulated activity, biphasic in the activation test
EXPERIMENTAL CONDITIONS: read-out: EC50 (the source's name)
ATTRIBUTE MEASURED: pIC50
Field pIC50 (float): negative decimal logarithm of the concentration in molar.

Entry COc1cccc(OC)c1C(=O)/C=C/c1c2ccccc2nc2ccccc12 [1C] needs its pIC50 filled in; supply it.
5.26
